Tested on: HMEC
Experiment: Mammalian cytotoxicity, MTT reduction
Assay Readout: MTT HMEC
Please answer using the number first and the unit second.

Query: Item O=C(Cc1ccc(CCCc2ccccc2)cc1)NO [Cpd 5] has what recorded MTT HMEC?
Response: 47 µM

Query: Item `O=C(CCCCCC/C(=N\O)c1ccc(-c2ccccc2)cc1)NO` has what recorded MTT HMEC?
Response: 6 µM

Query: Item N#Cc1ccc(-c2ccc(OCCC(=O)NO)cc2)cc1 [Cpd 21] has what recorded MTT HMEC?
Response: 50 µM

---
Query: Item CC(/C=C/C(=O)NO)=C\C(C)Cc1ccc(N(C)C)cc1 (centres unmarked) [drawing 148] has what recorded MTT HMEC?
Response: 44 µM

Query: Item O=C(Cc1ccc(CCCCc2ccccc2)cc1)NO [Cpd 4] has what recorded MTT HMEC?
Response: 13 µM

Provenance of the data: patent US8759400B2
